# Test system: U251 CNS
# Procedure text: NCI-60 one-dose screen, 48 h (100 = growth as untreated, 0 = no growth, -100 = all killed)
# Condition info: 10 µM unless noted
Compounds without any hit were thinned out: in the full panel of roughly 83,000, 20% have a hit.
// reported growth per item
Return type: number; implicit unit %.

Below are worked cases with known answers.
Molecule	Units symbol	growth
COc1cc(C2CC(c3cccc(Nc4ccncc4)c3)=NN2c2ccccc2)cc(OC)c1OC (stereo not given)	%	19.7
C[C@@H]1CN(Cc2ccc(/C=C/c3n[nH]c4ccc5nc(-c6cn[nH]c6C(F)(F)F)c6c(c5c34)CCCC6)cc2)C[C@H](C)O1	%	46.1
C=C(C)[C@@H]1CC[C@]2(C(=O)NCC(=O)OC)CC[C@]3(C)[C@H](CC[C@@H]4[C@@]5(C)Cc6c([nH]c7ccccc67)C(C)(C)[C@@H]5CC[C@]43C)[C@@H]12	%	58.9

[in] Which growth reading was recorded for the molecule COc1ccc(NC(=O)c2sc3nc(C)c(C(O)c4ccc(OC)cc4)cc3c2N)cc1 (stereo not given) ?
[out] 25.9

[in] Likewise for COC(=O)Nc1nc2ccc(C(=O)c3cccc(I)c3)cc2[nH]1 ?
[out] 13.6

[in] Similarly, Clc1cc(Cl)cc(N2N=C(c3cccc(Nc4ccncc4)c3)CC2c2ccc3c(c2)OCO3)c1 (stereo not given) ?
[out] -43.6

[in] How about this molecule: CCN(CC)CCCC(C)Nc1cc(-c2cccc(OC(F)(F)F)c2)nc2ccc(N3CCCC3)cc12 (stereo not given)
[out] -58.4

[in] Try the molecule CCCCOc1ccc(/C=N/Nc2cc(C)nc3ccc(Cl)cc23)cc1
[out] -82.1

###

# Tested on: DU-145 prostate
# Procedure text: NCI-60 one-dose screen, 48 h (100 = growth as untreated, 0 = no growth, -100 = all killed)
# Condition info: 10 µM unless noted
This is part of a sample that, as a whole, favours compounds with a hit. Of some 83,000 tested, about 20% had one in any assay.
Assign labels as follows, please: satisfied for growth below 90%; not satisfied for growth equal to or exceeding 90%.

Solved entries:
Compound	Label class
COc1ccc(-c2nc(N/N=C/c3ccco3)nc(N3CCOCC3)c2C#N)cc1	not satisfied
Cn1c(COC(=O)NCCn2ccnc2)nc2c(N3CCOCC3)nc(-c3ccccc3)nc21	satisfied
C=CCn1c(SCC(=O)Nc2ccc(C(=O)/C=C/c3cc(OC)c(OC)c(OC)c3)cc2)nnc1-c1cc(-c2ccc(S(C)(=O)=O)cc2)nc2ccccc12	not satisfied
C=C(C)[C@@H]1CC[C@]2(C(=O)NCC(=O)OC)CC[C@]3(C)[C@H](CC[C@@H]4[C@@]5(C)Cc6c([nH]c7ccccc67)C(C)(C)[C@@H]5CC[C@]43C)[C@@H]12	satisfied
O=S(=O)(NCCCNc1nccc(-c2c(-c3cccc(O)c3)nc3occn23)n1)c1ccc(F)cc1	satisfied
C=C(C)[C@@H]1CC[C@]2(CO)CC[C@]3(C)[C@H](CC[C@@H]4[C@@]5(C)CCCNC(C)(C)[C@@H]5CC[C@]43C)[C@@H]12	satisfied
COc1cc(/C=C2\C(=O)N(Cc3ccc(Cl)cc3)c3ccccc32)cc(OC)c1OC	satisfied
COc1cccc(NC(=O)c2cccc(-c3cc(=O)c4c(OC)c(OC)c(OC)cc4o3)c2)c1	satisfied

[in] Find out if reported growth for O=C1NC(=S)NC(=O)C1=Cc1cccc(C=C2C(=O)NC(=S)NC2=O)c1 is less than 90%
[out] not satisfied

[in] Cool, now COC(=O)C(c1ccccc1)C(CC(=O)c1ccccc1)c1ccccc1 (stereo not given)
[out] not satisfied

[in] Next compound up: COc1ccc(NS(=O)(=O)c2ccc(C)cc2)c([N+](=O)[O-])c1
[out] not satisfied

[in] Try the compound NC(=O)c1cccc(-n2ccc3cc(NC(=O)Nc4cc(C(F)(F)F)cc(C(F)(F)F)c4)ccc32)n1
[out] satisfied

[in] Try CCOC(=O)N1CCN(CCCCl)CC1 next.
[out] not satisfied

[in] Same for Nc1ncc(C#Cc2cncc(NC(=O)c3cccc(C(F)(F)F)c3)c2)c2cccnc12
[out] satisfied
